molecular target: DDR1 kinase (Homo sapiens, UniProt Q08345); assay: Evaluation of DDR1 kinase inhibition (LANCE Ultra TR-FRET kinase assay); assay type: biochemical; parameters: purchased Carna Biosciences 08-113; settings: DDR1 protein 0.5 nM, LANCE Ultra ULight-poly GAT substrate, 2 hours at room temperature, duplicate; read-out: DDR-1 IC50
Sequence (Q08345 19-876 isoform Q08345-2 limits assumed): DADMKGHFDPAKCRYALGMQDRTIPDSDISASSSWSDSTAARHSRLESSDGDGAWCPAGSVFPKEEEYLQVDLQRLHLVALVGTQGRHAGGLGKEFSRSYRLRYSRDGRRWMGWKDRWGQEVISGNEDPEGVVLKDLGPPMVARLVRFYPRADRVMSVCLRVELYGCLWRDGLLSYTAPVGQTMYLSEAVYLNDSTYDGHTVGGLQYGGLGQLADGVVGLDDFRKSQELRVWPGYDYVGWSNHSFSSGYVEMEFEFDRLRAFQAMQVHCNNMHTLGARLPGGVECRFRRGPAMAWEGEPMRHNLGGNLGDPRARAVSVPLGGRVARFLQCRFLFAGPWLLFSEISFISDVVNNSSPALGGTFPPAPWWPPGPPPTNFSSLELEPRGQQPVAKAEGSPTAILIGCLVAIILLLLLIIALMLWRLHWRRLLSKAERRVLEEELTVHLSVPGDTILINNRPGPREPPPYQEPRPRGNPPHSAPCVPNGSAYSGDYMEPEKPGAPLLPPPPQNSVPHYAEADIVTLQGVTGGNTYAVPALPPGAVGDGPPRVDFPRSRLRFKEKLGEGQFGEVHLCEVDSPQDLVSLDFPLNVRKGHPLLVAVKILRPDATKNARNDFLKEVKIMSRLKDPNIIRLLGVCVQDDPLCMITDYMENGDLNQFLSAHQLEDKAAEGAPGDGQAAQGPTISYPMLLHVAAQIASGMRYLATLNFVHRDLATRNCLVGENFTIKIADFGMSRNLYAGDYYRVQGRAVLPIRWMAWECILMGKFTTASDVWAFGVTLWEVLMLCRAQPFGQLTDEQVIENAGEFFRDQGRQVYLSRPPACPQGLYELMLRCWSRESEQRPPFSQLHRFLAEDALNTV
quantity_measured: IC50 (nM)

(A) Nc1cc(C(=O)N2CC(c3nn(CC(=O)N4CCO[C@@H](C(F)(F)F)C4)c4cc(F)cc(F)c34)C2)c(F)cn1
(B) Nc1cc(C(=O)N2CC(c3nn(CC#Cc4ccccc4)c4cc(F)cc(F)c34)C2)ccn1
(C) Cc1nc(N)sc1C(=O)N1CC(c2nn(CC(=O)N3CCOCC3(C)C)c3ccccc23)C1
Query block: Method: rank(items above, key=IC50, ascending=True) Dear reader, please state the labels in the requested order.
Result block: A, C, B

(a) CCN(CC(F)(F)F)C(=O)Cn1nc(C2CN(C(=O)c3cc(N)ncc3F)C2)c2ccccc21
(b) Nc1cc(C(=O)N2CC(c3nn(CC(=O)N4CCC[C@H]4C(F)F)c4ccccc34)C2)c(F)cn1
Query block: Pick one: a or b . Which one has the lower reported IC50? // output: label of the selected item
Result block: b
(b: 1.4 nM, a: 3.5 nM)
